PROTOCOL: Neurotoxicity in ip dosed Kunming mouse assessed as motor impairment by measuring reduction in time spent on rotarod
Type: toxicity, organism-based
CONDITION: in vivo
What TD50 was measured for each of the following?

// Input: Cc1ccc(CN2CC/C(=C\c3ccc4c(c3)OCO4)C2=O)cc1 . Output its TD50 only.
167 mg/kg

// Input: O=C1/C(=C/c2ccc3c(c2)OCO3)CCN1Cc1cccc(C(F)(F)F)c1 . Output its TD50 only.
161 mg/kg

// Input: O=C1NCC/C1=C\c1ccc2c(c1)OCO2 . Output its TD50 only.
179 mg/kg

// Input: O=C1/C(=C/c2ccc3c(c2)OCO3)CCN1Cc1ccccc1F . Output its TD50 only.
238 mg/kg
